- tgt: Human immunodeficiency virus type 1 reverse transcriptase (Human immunodeficiency virus 1, UniProt Q72547, L100I)
- method.summary: Inhibition of HIV1 reverse transcriptase L100I mutant expressed in Escherichia coli assessed as incorporation of [3H]dTTP into poly(rA)/oligo(dT) by scintillation counting
Kindly state IC50 for each of the entries shown.
API: value field is a number in nM; no unit string.

Challenge: Quick check: IC50 of Cc1cc(C)cc(S(=O)(=O)c2c(C(=O)NCN3CCOCC3)[nH]c3ccc([N+](=O)[O-])cc23)c1 ?
Response given: 99

Challenge: Param item = Cc1cc(C)cc(S(=O)(=O)c2c(C(=O)NCCN3CCCC3)[nH]c3ccc(Br)cc23)c1 ; retrieve measured IC50.
Response given: 315

Challenge: Request the reported IC50 associated with Cc1cc(C)cc(S(=O)(=O)c2c(C(=O)NCN3CCCCC3)[nH]c3ccc([N+](=O)[O-])cc23)c1
Response given: 10

Challenge: I would be grateful if you could share the reported IC50 for Cc1cc(C)cc(S(=O)(=O)c2c(C(=O)NCCc3ccccc3)[nH]c3ccc(Br)cc23)c1 .
Response given: 23

Challenge: Consider the compound Cc1cc(C)cc(S(=O)(=O)c2c(C(=O)NCN3CCOCC3)[nH]c3ccc(Cl)cc23)c1 and give its measured IC50.
Response given: 117

Challenge: If you can, please state the reported IC50 value of Cc1cc(C)cc(S(=O)(=O)c2c(C(=O)NCCN3CCOCC3)[nH]c3ccc(Cl)cc23)c1 .
Response given: 225

Challenge: Field request: IC50 | item: Cc1cc(C)cc(S(=O)(=O)c2c(C(=O)NCN3CCCCC3)[nH]c3ccc(Br)cc23)c1
Response given: 19

Measured values drawn from ChEMBL document CHEMBL1765016 for this set.
